systemTested: purified DHFR of the opportunistic pathogen P. carinii (Pneumocystis carinii, UniProt P16184)
Sequence (P16184 1-206): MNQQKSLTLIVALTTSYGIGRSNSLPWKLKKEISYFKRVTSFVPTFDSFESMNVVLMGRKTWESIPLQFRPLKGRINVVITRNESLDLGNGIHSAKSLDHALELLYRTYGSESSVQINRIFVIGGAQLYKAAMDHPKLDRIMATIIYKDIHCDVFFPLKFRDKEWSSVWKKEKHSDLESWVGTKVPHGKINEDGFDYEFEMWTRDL
Counter-ions that a name gives are not always drawn.
attributeMeasured: IC50

Query string: Entry CCn1cc(C(=O)O)c(=O)c2cc(F)c(C#Cc3cc(Cc4cnc(N)nc4N)cc(OC)c3OC)cc21 [Example 16f, hydrochloride] has what IC50?
Result string: 280 nM

Query string: Entry COc1cc(Cc2cnc(N)nc2N)cc(C#Cc2ccc3c(=O)c(C(=O)O)cn(Cc4ccccc4)c3c2)c1OC [Example 16p, hydrochloride] has what IC50?
Result string: 140 nM

Query string: Entry COc1cc(Cc2cnc(N)nc2N)cc(C#Cc2c(F)cc3c(=O)c(C(=O)O)cn(C4CC4)c3c2F)c1OC [Example 16c, hydrochloride] has what IC50?
Result string: 36 nM

Query string: Entry COc1ccc(Cc2cnc(N)nc2N)cc1-c1cc2c(cc1F)c(=O)c(C(=O)O)cn2C1CC1 [Example 9b, trifluoroacetate] has what IC50?
Result string: 38 nM

Query string: Entry COc1cc(Cc2cnc(N)nc2N)cc(-c2ccc3ccccc3c2)c1OC [Example 4h] has what IC50?
Result string: 1600 nM

Query string: Entry COc1cc(Cc2cnc(N)nc2N)cc(-c2ccc3cc(O)ccc3c2)c1OC [Example 5h] has what IC50?
Result string: 1000 nM

Query string: Entry CCOC(=O)c1cn(CC)c2cc(C#Cc3cc(Cc4cnc(N)nc4N)cc(OC)c3OC)ccc2c1=O [Example 12g] has what IC50?
Result string: 900 nM

Query string: Entry COc1cc(Cc2cnc(N)nc2N)cc(C#Cc2ccc3ccccc3c2)c1OC [Example 15a] has what IC50?
Result string: 8000 nM
